Sourced from patent US10781262B2

Tested on: primary CD34+ AML cells from relapsed/refractory patients
Experiment: Cytotoxic activity on primary AML cells, CellTiter-Glo
Assay type: cell-based, human
Details: Homo sapiens, 72 h, D3; AML CD34+ PB0135 cells; Fab-PE24 constructs, 3 days
From the text: CD34^+ cells from peripheral blood of relapsed/refractory patients were obtained from AllCells, LLC, Alameda, Calif. […] (see FIG. 31). Cycloheximide was used as positive control.
observable: IC50 (nM)
Just the number please, in nM, no unit attached.

Would you kindly share the measured IC50 for C[C@@H]1C[C@@H]([C@H](O)CC2CC(=O)NC(=O)C2)C(=O)[C@@H](C)C1 [Cycloheximide] ?
121
